Examples of compounds with documented pIC50 follow.
Biological target: full-length beta-Catenin (Uniprot ID P35222) (Homo sapiens)
Construct: 10 nM full-length beta-Catenin (Uniprot ID P35222)
Sequence (P35222 whole entry): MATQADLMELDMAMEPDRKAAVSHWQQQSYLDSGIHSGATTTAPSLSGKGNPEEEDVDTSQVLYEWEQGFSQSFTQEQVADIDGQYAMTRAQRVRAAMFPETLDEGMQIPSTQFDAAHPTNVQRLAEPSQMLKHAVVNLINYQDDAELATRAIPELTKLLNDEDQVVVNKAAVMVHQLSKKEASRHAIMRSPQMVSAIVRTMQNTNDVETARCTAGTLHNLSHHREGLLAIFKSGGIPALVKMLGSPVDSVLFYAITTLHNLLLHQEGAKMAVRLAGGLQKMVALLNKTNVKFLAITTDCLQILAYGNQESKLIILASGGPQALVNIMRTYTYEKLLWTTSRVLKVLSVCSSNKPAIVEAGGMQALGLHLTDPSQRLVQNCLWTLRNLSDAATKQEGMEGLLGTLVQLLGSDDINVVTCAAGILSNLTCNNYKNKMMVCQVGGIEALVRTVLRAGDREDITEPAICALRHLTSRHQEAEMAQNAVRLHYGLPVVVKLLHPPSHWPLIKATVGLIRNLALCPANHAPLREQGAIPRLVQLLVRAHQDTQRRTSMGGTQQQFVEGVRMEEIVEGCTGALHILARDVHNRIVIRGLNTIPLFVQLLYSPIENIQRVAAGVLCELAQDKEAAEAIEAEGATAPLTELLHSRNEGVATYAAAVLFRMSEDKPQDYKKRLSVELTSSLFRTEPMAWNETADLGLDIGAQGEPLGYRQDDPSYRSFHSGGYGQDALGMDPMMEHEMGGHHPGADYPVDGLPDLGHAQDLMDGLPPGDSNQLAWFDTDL
Assay: Fluorescence polarization IC50 (beta-catenin / 5FAM-TCF4 10-53 competition)
Assay type: binding
Settings: fluorescence polarization; read-out: beta-Catenin FP IC50
Answer as the number alone; pIC50 is minus log10 of concentration in mol/L.

INSERT INTO assay_data (compound, assay_value) VALUES
  ('CCNC(=O)CC[C@H](NC(=O)[C@H](Cc1csc2ccccc12)NC(=O)[C@H](Cc1ccccc1C(F)(F)F)NC(=O)[C@]12CCN(C1)C(=O)OCCCC=CCCCC1(CCCC=CC[C@]3(CCCN3C(C)=O)C(=O)N[C@@H](CC(=O)O)C(=O)N[C@@H](CC(C)(C)C)C(=O)N1)C(=O)N[C@@H](CC(=O)O)C(=O)N[C@@H](Cc1cccc(C(=O)O)c1)C(=O)N[C@@H](C)C(=O)N[C@@H](C)C(=O)N[C@@H](Cc1ccccc1)C(=O)N[C@@H](CC(C)C)C(=O)N2)C(=O)N[C@@H](C)C(N)=O (stereo partly drawn)', 7.62);

Input line: Query: pIC50; subject: CC(=O)N1CCC[C@]12CC=CCCCCC1(CCCCC=CCOC(=O)N3CC[C@@](C(=O)N[C@@H](Cc4ccccc4C(F)(F)F)C(=O)N[C@@H](Cc4csc5ccccc45)C(=O)N[C@@H](C)C(N)=O)(C3)NC(=O)[C@H](CC(C)C)NC(=O)[C@H](Cc3ccccc3)NC(=O)[C@H](C)NC(=O)[C@H](CCC(N)=O)NC(=O)[C@H](Cc3cccc(C(=O)O)c3)NC(=O)[C@H](CC(=O)O)NC1=O)NC(=O)[C@H](CC(C)(C)C)NC(=O)[C@H](CC(=O)O)NC2=O (stereo partly drawn) [I-2506]
Output line: 6.48

Input line: Give its pIC50 value. Item: CCCC[C@@H]1NC(=O)[C@H](Cc2ccccc2)NC(=O)[C@H](C)NC(=O)C(C)(C)NC(=O)[C@H](Cc2cccc(C(=O)O)c2)NC(=O)[C@H](CC(=O)O)NC(=O)C2(CCCC=CCCCOC(=O)N3CC[C@@](C(=O)N[C@@H](Cc4ccsc4)C(=O)N[C@@H](Cc4csc5ccccc45)C(=O)N[C@@H](CCC(=O)N4CCC(C(F)(F)F)CC4)C(N)=O)(C3)NC1=O)CCCC=CC[C@]1(CCCN1C(C)=O)C(=O)N[C@@H](CC(=O)O)C(=O)N[C@@H](CC(C)(C)C)C(=O)N2 (stereo partly drawn)
Output line: 7.54
